The measured values listed here are drawn from paper PMC9482650.

- Assay target: TJP2_1, Q9UDY2
- Sequence (Q9UDY2 24-128): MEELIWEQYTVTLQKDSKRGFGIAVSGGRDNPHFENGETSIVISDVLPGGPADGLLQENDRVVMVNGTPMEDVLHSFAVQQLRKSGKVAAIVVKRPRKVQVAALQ
- Measurement description: holdup assay
- Design: key: below the threshold = too weak to quantify, mostly under pKd 3.1 to 4
- Experimental context: plain residues with an end cap or a label only (N-terminal biotin on a linker: ado-ado)
Measure name: pKd

Worked cases, answers included:
Recorded result, VYPNAKVELV [PDLIM4_iso2, P50479;P50479-1] , pKd: below the threshold

Recorded result, MLSKQSESAI [FLVCR1, Q9Y5Y0] , pKd: below the threshold

Recorded result, ETQVTAETVI [TMEM225B, P0DP42] , pKd: below the threshold

Recorded result, LPHGHSTTRV [NLGN4X, Q8N0W4] , pKd: 4.04

Recorded result, PLSPEQPTKL [TRIM50, Q86XT4] , pKd: below the threshold

Recorded result, QSLNRMEYIV [JAG1, P78504] , pKd: below the threshold

---
Recorded result, LKVPPEERLI [CRB2, Q5IJ48] , pKd: below the threshold

Recorded result, LPHPHSTTRV [NLGN2, Q8NFZ4] , pKd: 3.97
